- assay details: chemical genetic growth profiling, strain panel (AID 1159580);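 note: tested at 20 µM; growth read once vehicle control cultures reached saturation at 30 °C; 1 = growth at the plate median or of vehicle wells; lower values mean less growth of the strain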
- condition description: S. cerevisiae deletion strains, growth OD, locus YLL001W, strain dnm1, active compounds read low
The whole screen tested about 5,500 compounds, of which about 2,000 (36%) were called active. Another 18% or so got no clear call; they are omitted. The list shows a part of the results.
Provide the reported normalized growth of each item.

// each listed compound needs a value for normalized growth
1. Cc1ccccc1OCC(O)CO (stereo unspecified)
2. COc1cc(OC)c2ccc(=O)oc2c1
3. CCCCCc1c2c(cc(O)c1C(=O)O)OC(=O)c1c(cc(OC)cc1C(=O)CCCC)O2
4. COc1ccc(-c2cc(=O)c3c(O)cc(O[C@H]4O[C@H](CO[C@@H]5O[C@@H](C)[C@H](O)[C@@H](O)[C@H]5O)[C@@H](O)[C@H](O)[C@H]4O)cc3o2)cc1
5. O=c1ccc2c(O)c3ccoc3cc2o1
6. C[C@]12CCC3c4ccc(OS(=O)(=O)O)cc4CCC3C1CC[C@H]2O (stereo partly specified)

1: 0.985 (inactive); 2: 0.94 (inactive); 3: 1.01 (inactive); 4: 0.969 (inactive); 5: 0.982 (inactive); 6: 0.994 (inactive)

* * *

- assay details: chemical genetic growth profiling, strain panel (AID 1159580)
- condition description: S. cerevisiae deletion strains, growth OD, locus YHR087W, strain rtc3, active compounds read low
About 2,000 (36%) of roughly 5,500 compounds were called active. Inconclusive results (about 18%) are left out. This is one part of the list.
metric name: normalized growth

Observe how each entry below is paired with its result.
{"columns": ["compound", "normalized growth"],
 "data": [
  ["CN(C)C=Nc1nnc(SCc2ccc(C(=O)Oc3ccc(F)cc3F)cc2)s1", "1.02 (inactive)"],
  ["Brc1ccc(-c2ccn[nH]2)s1", "0.993 (inactive)"],
  ["O=S(=O)(Oc1cc(Cl)cc(Cl)c1)c1cccc(S(=O)(=O)Oc2cc(Cl)cc(Cl)c2)c1", "0.996 (inactive)"],
  ["COCCCNC(=S)N/N=C\\c1cccc(OC)c1O", "1.01 (inactive)"],
  ["O=C1CC(Nc2ccccc2)C=C1Nc1ccccc1 (configuration not stated)", "1.02 (inactive)"]
]}

// each listed compound needs a value for normalized growth
1. O=C1c2ccccc2C(=O)N1CNc1ccc(N2CCOCC2)cc1
2. O=C1NC(=O)/C(=C/c2ccc(OS(=O)(=O)c3ccc(Cl)cc3)cc2)N1
3. COc1ccccc1Oc1ccc(C(F)(F)F)cc1NC(=O)NC(=O)c1ccccc1F
4. O=[N+]([O-])c1ccc(Oc2cccc3cccnc23)cc1
5. Cn1[nH]c(=O)cc1C(=O)NN
6. Cc1ccc(-c2csc(-c3ccc(Oc4ccc(C(F)(F)F)cn4)cc3)n2)c(C)c1

1: 1.02 (inactive); 2: 1.02 (inactive); 3: 1.06 (inactive); 4: 1 (inactive); 5: 1 (inactive); 6: 0.995 (inactive)

// each listed compound needs a value for normalized growth
1. Cc1ccc(/C=C2\CCc3ccccc3C2=O)o1
2. Cn1c2c(c3c1CCCC3)CCCC2
3. CCOC(=O)c1sc(SC(C)C)c2c1CCCC2=O
4. COC(=O)CSc1ncnc2c(C)csc12
5. CSc1cccc(NC(=S)N=CN(C)C)c1

1. 0.528 (active)
2. 0.992 (inactive)
3. 0.978 (inactive)
4. 0.998 (inactive)
5. 1.12 [resistant] (active)

// each listed compound needs a value for normalized growth
1. Clc1ccc(C=C2c3ccccc3-c3ccccc32)cc1
2. CCOC(=O)/C(C#N)=C/c1ccc(Br)cc1
3. CN(C)C=Nc1nnc(Sc2nc3cc(Cl)ccc3s2)s1
4. CCOC(=O)N/N=C\c1ccccc1OCC

1. 0.986 (inactive)
2. 0.821 (active)
3. 0.914 (inactive)
4. 0.992 (inactive)

// each listed compound needs a value for normalized growth
1. OC1(C(F)(F)F)CC(c2ccccc2)=NN1 (configuration not stated)
2. COC(=O)CSc1nc2ccc(Cl)cc2s1
3. S=c1nccc(-c2ccc(Cl)cc2)[nH]1
4. Cc1cc(Br)c(NC(=O)C(Cl)(Cl)Cl)c(Br)c1

1: 0.967 (inactive); 2: 0.942 (inactive); 3: 0.912 (inactive); 4: 0.899 (active)

// each listed compound needs a value for normalized growth
1. Cc1onc(-c2ccc(Cl)cc2)c1-c1ccnn1C(=O)NC(C)C
2. C/C(=N/NC(=S)Nc1ccc(C(C)C)cc1)c1ccco1
3. N#Cc1ccc(-c2csc(-c3ccc(Oc4ccc(C(F)(F)F)cn4)cc3)n2)cc1

1. 0.906 (active)
2. 0.817 (active)
3. 0.984 (inactive)

* * *

- assay details: chemical genetic growth profiling, strain panel (AID 1159580);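 note: tested at 20 µM; growth read once vehicle control cultures reached saturation at 30 °C; 1 = growth at the plate median or of vehicle wells; lower values mean less growth of the strain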
- condition description: S. cerevisiae deletion strains, growth OD, locus YLR371W, strain rom2, active compounds read low
Screen size: about 5,500 compounds; about 2,000 (36%) were called active. Roughly 18% stayed inconclusive and do not appear here. The list shows a part of the results.
Decision: normalized growth beneath 1 gives yes (1); normalized growth meeting or exceeding 1 gives no (0).

{"columns": ["smiles representation", "label class"],
 "data": [
  ["COc1ccc2ccc(=O)oc2c1", "no (0)"],
  ["CC1=CC(=O)C2=C(C)CC[C@@H]3[C@H](OC(=O)[C@H]3C)[C@@H]12", "yes (1)"]
]}

Below: the item to evaluate.
Hi there! Is normalized growth for CC[n+]1c(-c2ccccc2)c2cc(N)ccc2c2ccc(N)cc21 below 1, do you know?
yes (1)

* * *

- assay details: chemical genetic growth profiling, strain panel (AID 1159580);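 note: tested at 20 µM; growth read once vehicle control cultures reached saturation at 30 °C; 1 = growth at the plate median or of vehicle wells; lower values mean less growth of the strain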
- condition description: S. cerevisiae deletion strains, growth OD, locus YMR078C, strain ctf18
Out of some 5,500 compounds screened, about 2,000 (36%) were called active. About 18% were inconclusive and are not listed. Cut-off read from the data, not from the text of the source: active = normalized growth mostly below about 0.91 (no sharp cut-off); inconclusive = no clear call, values can overlap the other calls; inactive = mostly above about 0.92. This is one part of the list.
Log the outcome using a class from active, inactive

Example cases with answers are listed next.
{"columns": ["molecule", "label class"],
 "data": [
  ["CC1CC[C@@]2(OC1)O[C@H]1CC3C4CC[C@@H]5CC(=O)CC[C@]5(C)C4CC[C@]3(C)[C@H]1[C@@H]2C (some centres not stated)", "inactive"],
  ["CC1CCC2(OC1)OC1CC3C4CC[C@H]5C[C@@H](O)CC[C@]5(C)C4CC(=O)[C@]3(C)C1C2C (some centres not stated)", "inactive"],
  ["C[C@@H]1CC[C@@]2(OC1)O[C@H]1CC3C4CC[C@H]5C[C@@H](O)CC[C@]5(C)C4CC[C@]3(C)[C@H]1[C@@H]2C (some centres not stated)", "inactive"]
]}

Can you look up the reported call for CC1CC[C@]2(NC1)O[C@H]1CC3C4CC[C@H]5C[C@@H](O)CC[C@]5(C)C4CC[C@]3(C)[C@H]1[C@@H]2C (some centres not stated) for me?
active

* * *

- assay details: chemical genetic growth profiling, strain panel (AID 1159580);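 note: tested at 20 µM; growth read once vehicle control cultures reached saturation at 30 °C; 1 = growth at the plate median or of vehicle wells; lower values mean less growth of the strain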
- condition description: S. cerevisiae deletion strains, growth OD, locus YNL153C, strain GIM3
The campaign covered roughly 5,500 compounds. About 2,000 (36%) were called active. Another 18% or so got no clear call; they are omitted. No stated cut-off is given here; in the data, active means normalized growth mostly below about 0.91 (no sharp cut-off); inconclusive means no clear call, values can overlap the other calls; inactive means mostly above about 0.92. This is one part of the list.
Log the outcome using a class from YES = active, NO = inactive

Example cases with answers are listed next.
{"columns": ["compound", "label class"],
 "data": [
  ["CC12CCC3c4ccc(OCc5ccccc5)cc4CCC3C1C[C@@H](O)[C@@H]2O (some centres not stated)", "YES"],
  ["COc1ccccc1Oc1ccc(C(F)(F)F)cc1NC(=O)NC(=O)c1ccccc1F", "NO"],
  ["COC(=O)CSc1nc2ccc(Cl)cc2s1", "NO"],
  ["CC(C)[N+](C)(CCC(C(N)=O)(c1ccccc1)c1ccccc1)C(C)C", "NO"],
  ["NC(N)=NC(=O)c1nc(Cl)c(N)nc1N", "NO"],
  ["COc1ccc2c(c1)CCC1C2CC[C@@]2(C)C1CC[C@@H]2O (some centres not stated)", "YES"],
  ["COC(=O)CSc1ncnc2c(C)csc12", "NO"],
  ["CCC1OC(=O)[C@H](C)C(=O)[C@H](C)[C@@H](OC2O[C@H](C)C[C@H](N(C)C)[C@H]2O)[C@](C)(OC)C2(CCCn3cnc(-c4cccnc4)c3)C[C@@H](C)C(=O)[C@H](C)[C@H]3N(C2)C(=O)O[C@]13C (some centres not stated)", "NO"],
  ["FC(F)(F)c1cc(CO[C@H]2CCCN[C@H]2c2ccccc2)cc(C(F)(F)F)c1", "NO"],
  ["CC(C)CN(C)c1nc(N)c(C(=O)N=C(N)N)nc1Cl", "NO"]
]}

Can you look up the reported call for C[C@@H]([C@H](O)c1ccccc1)N(C)C for me?
NO

Can you look up the reported call for CN[C@@H]1C(O)[C@@H](O[C@@H]2[C@@H](O)[C@H](O[C@H]3OC(CN)=CC[C@H]3N)[C@@H](N)C[C@H]2N)OC[C@]1(C)O (some centres not stated) for me?
NO
